Exercise: state measured Kd for each of the binders provided.
- experimental target: T1, RSV F subtype B, furin-cleaved ectodomain stabilized in the prefusion conformation (DS-Cav1) (Respiratory syncytial virus subtype B)
- T1 construct: extracellular domain; Trimeric soluble antigen; also called Prefusion subtype B
- assay remarks: BLI, IgG on AHQ sensor, 100 nM antigen
Quote the value and follow it with the unit of measurement.

Return reported Kd values for all items listed beneath this line.
1. ADI-18947 (antibody, V domains shown, full-length IgG from yeast) VH: QVQLVQSGGGVVQSGRSLRLSCAASGFTFSDNGMHWVRQAPGKGLEWVAGIFHDGSNKQYAESVKGRFIISRDNSKNTLYLQMNSLRAEDTALYFCARAPYDIWSGYCLDYWGQGTLVTVSS VL: DIRMTQSPATLSLSPGESATLSCRASQSVINNLAWYQQRPGQAPRLLIYGASTRATGIPARFSGSGSETEFTLTISSLQSEDFAVYHCQQYSIWPQTFGQGTKLEIK
2. ADI-18938 (antibody, V domains shown, full-length IgG from yeast; also called Antibody Number 291; Ab # 291) VH: EVQLLESGGGLVQPGGSLRLSCAASGFTFSNYWMHWVRQAPGKGLVWVSRISGDGSDTTYADSVEGRFTISRDNARSTLYLQLNSLTGDDTAVYYCARDLWTTSPYFDLWGQGTLVTVSS VL: EIVLTQSPGTLSASIGDRVTITCRASQSLNGWLAWYQQKPGKAPRLLIYKSSSLESGVPSRFSGSASGTEFTLTISSLQPDDFATYYCQQYNSWAFGQGTKVDVK
3. ADI-18944 (antibody, V domains shown, full-length IgG from yeast) VH: QVQLVQSGAEVKKPGASVKVSCKTSGYTFSNYGISWLRQAPGQGLEWMAWISPYNGNTKSAQRFQGRVIMTTDTSTRTAHMEVKSLRTDDTATYYCARDPAVDAIPMLDYWGQGTTVTVSS VL: DIQVTQSPLSLPVTLGQPASISCRSSQSLVYTDGNTYLSWFQQRPGQSPRRLIYRVSHRDSGVPDRFTGSGSGTDFTLIIRRVEAEDVGVYYCMQGTHWPLTFGGGTKVEIK
4. ADI-18977 (antibody, V domains shown, full-length IgG from yeast) VH: QVQLVQSGTEVKKPGASVKISCKTSGYTFTNNVIQWVRQAPGQRLEWMGWISAGNGYTKYSDKFQDRVTITRDTSASTAYMEVSSLTSEDTAMYYCARQVSTSGWHATSHRFAPWGQGTLVTVSS VL: DIQMTQSPSSLSASVGDRVTITCQASQGISRYLNWYQQKPGKAPNLLIYDASNLETGVPSRFSGSGSGTHFTLTISSLQPEDIATYYCQQYDNLPLTFGGGTKVEIK

### Response
1. 2200 pM
2. 150 pM
3. 337 pM
4. 966 pM

### Prompt Could you tell me which Kd is on file for ADI-18908 (antibody, V domains shown, full-length IgG from yeast) VH: QVQLVESGGGLVKPGGSLRLSCAASGFTFSSFGMHWVRQAPGQGLEWVASITGGSSYINYADSVKGRFTISRDNAKKSLSLQMKNLRAEDTAEYYCVRGVLPGGTGGGWFDSWGQGTLVTVSS VL: QSVLTQPPSMSGAPGQRVTISCTGTSSNIGAGYDVQWYQQFPGTAPKLLISGNNNRPSGVPDRFSGSKSGASASLAITGLQAEDEADYYCQSYDYSLNWVFGGGTKLTVL ?
### Response 352 pM
